Target: T1, cynomolgus monkey B7-H4 (recombinant, BLI) (cynomolgus monkey, UniProt Q7Z7D3 25-259 (human entry))
T1 construct: also called Cynomolgus B7-H4
T1 sequence: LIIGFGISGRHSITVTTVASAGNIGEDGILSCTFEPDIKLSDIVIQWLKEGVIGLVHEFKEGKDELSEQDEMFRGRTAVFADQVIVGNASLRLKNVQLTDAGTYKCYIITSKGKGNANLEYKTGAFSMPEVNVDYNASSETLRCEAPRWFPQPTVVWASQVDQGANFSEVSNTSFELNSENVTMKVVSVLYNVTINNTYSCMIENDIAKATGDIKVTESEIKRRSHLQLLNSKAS
Assay: BLI, antigen on Protein A tips;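 further: Anti-B7-H4 antibodies assessed for affinity toward the B7-H4 extracellular domain using biolayer interferometry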

>  <binder>
B7-H4 antibody 20502 (antibody, V domains shown, human IgG1/kappa) VH: QLQLQESGPGLVKPSETLSLTCTVSGGSIKSGSYYWGWIRQPPGKGLEWIGNIYYSGSTYYNPSLRSRVTISVDTSKNQFSLKLSSVTAADTAVYYCAREGSYPNQFDPWGQGTLVTVSS VL: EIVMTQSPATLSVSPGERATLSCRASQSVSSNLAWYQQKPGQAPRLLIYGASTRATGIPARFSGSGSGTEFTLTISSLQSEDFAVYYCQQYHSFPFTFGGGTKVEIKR

>  <koff [s⁻¹]>
0.00112

$$$$
>  <binder>
B7-H4 antibody 22216 (antibody, human IgG1, kappa, V domains shown, human IgG1/kappa) VH: QVQLQESGPGLVKPSQTLSLTCTVSGGSISDGSYYWSWIRQHPGKGLEWIGNIYYSGSTYYNPSLRSRVTMSVDTSKNQFSLKLSSVTAADTAVYYCARGLSTIDEAFDPWGQGTLVTVSS VL: DIQMTQSPSTLSASVGDRVTITCRASKSISSWLAWYQQKPGKAPKLLIYEASSLHSGVPSRFSGSGSGTEFTLTISSLQPDDFATYYCQQDNSYPYTFGGGTKVEIKR

>  <koff [s⁻¹]>
0.000359

$$$$
>  <binder>
B7-H4 antibody 20502.1 (antibody, human IgG1, kappa, V domains shown, human IgG1/kappa) VH: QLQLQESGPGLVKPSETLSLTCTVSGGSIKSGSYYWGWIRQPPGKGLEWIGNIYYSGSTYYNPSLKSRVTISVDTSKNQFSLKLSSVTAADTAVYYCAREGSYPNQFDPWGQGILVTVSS VL: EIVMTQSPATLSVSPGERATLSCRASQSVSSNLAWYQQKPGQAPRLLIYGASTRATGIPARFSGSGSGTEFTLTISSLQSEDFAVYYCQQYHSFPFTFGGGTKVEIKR

>  <koff [s⁻¹]>
0.00139

$$$$
